Biological target: Yer064c (UniProt P40041)
Sequence: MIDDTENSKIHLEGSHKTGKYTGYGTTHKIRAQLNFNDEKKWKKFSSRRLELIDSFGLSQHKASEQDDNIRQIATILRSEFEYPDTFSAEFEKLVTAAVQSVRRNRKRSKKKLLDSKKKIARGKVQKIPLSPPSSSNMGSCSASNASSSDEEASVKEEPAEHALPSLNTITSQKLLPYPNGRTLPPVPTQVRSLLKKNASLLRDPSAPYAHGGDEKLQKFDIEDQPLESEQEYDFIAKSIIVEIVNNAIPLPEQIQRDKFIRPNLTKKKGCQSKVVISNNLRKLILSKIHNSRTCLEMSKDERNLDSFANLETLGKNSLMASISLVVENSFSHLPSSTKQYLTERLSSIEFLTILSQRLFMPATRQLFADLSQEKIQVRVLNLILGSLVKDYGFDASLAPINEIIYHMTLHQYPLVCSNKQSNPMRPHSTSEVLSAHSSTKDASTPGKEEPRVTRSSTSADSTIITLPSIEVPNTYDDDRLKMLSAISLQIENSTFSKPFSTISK
Assay: PBM E-score (8-mer binding enrichment) (E-score (-0.5 to 0.5)); higher = stronger / more preferred TF binding
Details: protein concentration: 200 nM; construct: GST-full length
In all, about 33,000 sequences were measured (“E-score (-0.5 to 0.5)”: median about -0.036, highest 2% from about 0.37 on). The list comes from a sample in which the highest values are over-represented; it also holds close analogues and randomly drawn sequences.
measurementLabel: PBM E-score
Numbers only.

AGACTACT	0.376
CCTGAGGA	0.00765
CAGTCCCC	-0.225
GACAGTCC	0.0581
CATCCTAA	0.0625
CCATCGGA	-0.00521
GATCATTA	0.128
CAGTCACG	0.413
TGGCTAAA	0.306
CAGTCACC	0.423

Could I get PBM E-score for every one of these entries?
1. GACGTTCA
2. AGGCCTGC
3. CTTAATAA
4. TACAGTGA
5. GCGGCTAC

1. -0.12
2. -0.27
3. 0.136
4. 0.211
5. -0.0969

Could I get PBM E-score for every one of these entries?
1. ATGAGCCA
2. ATTCGCGA
3. ATTAATCA
4. GGGAGCTA
5. GACAGTTA
6. CTCGATTA
7. AAACATTG

1. 0.396
2. 0.122
3. 0.441
4. -0.13
5. -0.103
6. 0.186
7. -0.0364

Could I get PBM E-score for every one of these entries?
1. AACAGTCA
2. AGACTATG
3. CCCTTTTA
4. CAACACAC

1. 0.384
2. 0.319
3. -0.0873
4. 0.0236

Could I get PBM E-score for every one of these entries?
1. GGACTAAA
2. CGGTCACC
3. TACCTGGA
4. AGACTACG
5. CTTAATCA
6. AACTGGCT
7. AAACTAAG

[0.331, -0.0952, 0.0309, 0.322, 0.45, -0.28, 0.175]

Could I get PBM E-score for every one of these entries?
1. CATCATTA
2. ATTCATTA
3. CGTTCACA
4. CTTAATCC
5. CACAGTCA
6. AATCATTG
7. CTCTCGGA

0.161
0.21
0.0136
0.114
0.411
0.43
0.144

Could I get PBM E-score for every one of these entries?
1. AATGTGTA
2. AGACTAAG
3. ATAAAGAC
4. AATGCCCT
5. ATCGGAGC
6. AATATGGA

0.222
0.383
0.196
-0.232
-0.0582
-0.0374

###

Target: Yer064c (UniProt P40041)
Sequence: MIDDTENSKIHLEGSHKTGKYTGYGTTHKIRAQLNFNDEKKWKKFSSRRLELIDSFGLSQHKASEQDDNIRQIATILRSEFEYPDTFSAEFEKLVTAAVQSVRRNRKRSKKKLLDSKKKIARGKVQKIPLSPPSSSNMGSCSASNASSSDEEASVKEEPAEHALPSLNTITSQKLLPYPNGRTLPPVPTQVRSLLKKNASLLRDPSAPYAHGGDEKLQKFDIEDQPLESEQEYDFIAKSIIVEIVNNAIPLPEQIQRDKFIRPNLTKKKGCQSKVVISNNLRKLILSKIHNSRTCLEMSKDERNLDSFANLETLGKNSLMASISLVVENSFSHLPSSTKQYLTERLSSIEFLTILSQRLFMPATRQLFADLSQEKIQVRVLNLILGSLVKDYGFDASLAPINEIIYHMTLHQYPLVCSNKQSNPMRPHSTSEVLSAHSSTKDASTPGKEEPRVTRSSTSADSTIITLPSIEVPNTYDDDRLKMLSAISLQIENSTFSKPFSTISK
Test: PBM E-score (8-mer binding enrichment) (E-score (-0.5 to 0.5)); higher = stronger / more preferred TF binding
Conditions: protein concentration: 200 nM; construct: GST-full length
In all, about 33,000 sequences were measured (“E-score (-0.5 to 0.5)”: median about -0.036, highest 2% from about 0.37 on). For the sample, the highest values were picked, then their nearest neighbours and some sequences at random.
Output TRUE for PBM E-score not less than 0.2; output FALSE otherwise.

ATAGGCAG	FALSE
CTAGAGTA	FALSE
GACGGCCC	FALSE
GTTACTTA	FALSE
ATAGAGTA	FALSE
CGGACTCC	FALSE

Reported PBM E-score at or above 0.2? AGCACTCA
FALSE

Reported PBM E-score at or above 0.2? CGAACTCA
TRUE

###

Kindly supply the reported PBM E-score values for the records listed here.
Target: Yer064c (UniProt P40041)
Sequence: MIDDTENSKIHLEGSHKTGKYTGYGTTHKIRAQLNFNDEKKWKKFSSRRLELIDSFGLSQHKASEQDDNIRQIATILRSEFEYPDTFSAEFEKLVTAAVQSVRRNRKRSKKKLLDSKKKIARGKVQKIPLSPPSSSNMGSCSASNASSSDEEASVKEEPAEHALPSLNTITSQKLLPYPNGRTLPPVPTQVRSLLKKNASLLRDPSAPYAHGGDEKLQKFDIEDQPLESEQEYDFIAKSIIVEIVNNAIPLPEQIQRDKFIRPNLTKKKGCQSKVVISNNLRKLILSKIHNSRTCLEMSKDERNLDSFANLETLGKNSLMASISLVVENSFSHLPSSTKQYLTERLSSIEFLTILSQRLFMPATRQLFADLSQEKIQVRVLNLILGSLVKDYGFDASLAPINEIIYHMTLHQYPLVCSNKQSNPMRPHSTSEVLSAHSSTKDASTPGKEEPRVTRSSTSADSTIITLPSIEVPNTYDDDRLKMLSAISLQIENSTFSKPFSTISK
Assay: PBM E-score (8-mer binding enrichment) (E-score (-0.5 to 0.5)); higher = stronger / more preferred TF binding
Conditions: protein concentration: 200 nM; construct: GST-full length
In all, about 33,000 sequences were measured (“E-score (-0.5 to 0.5)”: median about -0.036, highest 2% from about 0.37 on). The list comes from a sample in which the highest values are over-represented; it also holds close analogues and randomly drawn sequences.
Numbers only.

Reference set (8 entries):
AACGACTT	0.177
ACAGCCTA	-0.0814
CTCAATCA	0.402
CTGGTTAA	0.162
AACGACAC	-0.105
AAATGAAG	0.0192
AGACGACG	-0.265
GACGACGC	-0.226

Could I get PBM E-score for every one of these entries?
1. AGCCATGA
2. GTCGGCGA
3. CTTGTGAC
4. GATTCTCA
5. GAAGTCAA
6. AATAGGCT
7. GGTCACGA

1. 0.282
2. 0.141
3. 0.222
4. 0.221
5. 0.357
6. -0.0339
7. 0.0181

Could I get PBM E-score for every one of these entries?
1. AGAGACAG
2. TACTCTGA
3. CAAAACTC
4. GAACAGCA
5. AGTCACGG
6. GACGAGTC

1: -0.0696; 2: 0.156; 3: -0.0536; 4: -0.175; 5: 0.469; 6: 0.408

###

Kindly supply the reported PBM E-score values for the records listed here.
Biological target: Yer064c (UniProt P40041)
Sequence: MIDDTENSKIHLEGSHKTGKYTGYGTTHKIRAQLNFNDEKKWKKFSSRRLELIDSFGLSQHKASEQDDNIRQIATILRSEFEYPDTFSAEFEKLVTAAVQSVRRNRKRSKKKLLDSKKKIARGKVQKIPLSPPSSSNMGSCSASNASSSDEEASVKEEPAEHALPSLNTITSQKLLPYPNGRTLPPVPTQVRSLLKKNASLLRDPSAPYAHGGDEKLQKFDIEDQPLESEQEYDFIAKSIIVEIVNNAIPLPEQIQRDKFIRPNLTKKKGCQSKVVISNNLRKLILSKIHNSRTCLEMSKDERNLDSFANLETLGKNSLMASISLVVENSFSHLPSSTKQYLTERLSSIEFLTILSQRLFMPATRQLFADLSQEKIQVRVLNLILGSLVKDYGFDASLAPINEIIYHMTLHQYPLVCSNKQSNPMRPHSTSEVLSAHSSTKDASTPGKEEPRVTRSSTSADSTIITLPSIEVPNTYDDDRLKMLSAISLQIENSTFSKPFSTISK
Assay: PBM E-score (8-mer binding enrichment) (E-score (-0.5 to 0.5)); higher = stronger / more preferred TF binding
Details: protein concentration: 200 nM; construct: GST-full length
Whole data set: some 33,000 sequences, median “E-score (-0.5 to 0.5)” near -0.036, cut for the highest 2% near 0.37. This is one part of a sample in which the highest values are shown more often than they occur.
Numbers only.

GACTATCC	0.404

Could I get PBM E-score for every one of these entries?
1. AACTATTA
2. TACTCTAA
3. CACTATCC
4. AGACCAAA
5. AATGACTA
6. CTGATTCA
7. AATGACCA
8. AATGACCG

-0.00806
-0.042
-0.196
0.0161
0.487
0.45
0.0838
-0.203

Could I get PBM E-score for every one of these entries?
1. AATGACAG
2. CAGACTTC
3. GTTATGGA
4. TGCGGTAA
5. CGATGTGA
6. AATGACGA
7. AACTCTAC

-0.045
-0.103
-0.119
0.0977
0.103
0.0304
-0.212

All values here come from the supplement of paper PMC3334620.
